molecular target: human IDO1 (Homo sapiens); assay: HEK Human IDO-1 inhibition assay (kynurenine readout, Ehrlich reagent, absorbance 490 nm); settings: human IDO1/HEK293 cells, incubated 20 hours with compound; 500 nM reference standard = 100% inhibition
Sequence (P14902 whole entry): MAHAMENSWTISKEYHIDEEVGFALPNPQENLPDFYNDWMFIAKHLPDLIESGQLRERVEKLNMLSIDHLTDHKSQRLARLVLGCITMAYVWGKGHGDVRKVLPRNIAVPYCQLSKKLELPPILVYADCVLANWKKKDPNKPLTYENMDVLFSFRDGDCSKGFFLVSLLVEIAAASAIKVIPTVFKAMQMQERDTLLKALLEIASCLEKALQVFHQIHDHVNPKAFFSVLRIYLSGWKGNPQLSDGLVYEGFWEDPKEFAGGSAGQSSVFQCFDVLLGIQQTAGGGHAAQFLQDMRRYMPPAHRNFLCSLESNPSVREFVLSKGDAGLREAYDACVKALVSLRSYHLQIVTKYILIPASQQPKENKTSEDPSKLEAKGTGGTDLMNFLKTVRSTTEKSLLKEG
Kindly supply the reported IC50 values for the records listed here.

Below, each entry is followed by its recorded IC50 result.
| molecule | IC50 |
| --- | --- |
| CC(C)CN(c1c(F)cc(OCC(=O)NS(=O)(=O)C2CC2)cc1NC(=O)Nc1ccc(Cl)cc1F)C1CCCCC1 | < 5 nM |
| CC(C)CN(c1cc(F)c(OCC(=O)O)cc1NC(=O)Cc1ccc(Cl)cc1F)C1CCCCC1 | < 100 nM |

Input: Output IC50 of Cc1ccc(NC(=O)Nc2cc(OC(C)C(=O)O)ccc2N(CC(C)C)C2CCCCC2)cc1 (single isomer, unassigned)
Output: < 5 nM
